tested on: SK-MEL-28; assay: NCI tumour cell line growth inhibition, 48 h
The source made the active and inactive calls. No stated cut-off is given here; in the data, active = GI50 up to about 1.1 µM and inactive = higher.
readout-kind: GI50

These recorded examples may help you get a feel for the data.
> print(dat)
                                    compound             reported
 1  Cc1ccc(S(=O)(=O)NC2C(=O)c3ccccc3C(=O)C2n2ccnc2)cc1 (stereo not drawn)  > 100 µM (inactive)
 2  Cc1ccc(C2=C(Cl)C(=O)C(c3ccc(C)cc3)=C(Cl)C2=O)cc1  > 100 µM (inactive)
 3       CC1(C)CC(=O)C(C(=O)Nc2cccs2)=C(O)C1  > 100 µM (inactive)
 4  CCOC(=O)[C@H]1C[C@@H](C(=O)c2ccccc2)N2N=C(c3ccc(Br)cc3)C=C[C@H]12  > 100 µM (inactive)
 5                   CCOc1ccc(NC(=O)CC#N)cc1  > 100 µM (inactive)
 6                 O/N=N/c1ccc(-c2ccccc2)cn1   45.2 µM (inactive)
 7  Nc1ncnc2c1ncn2C1CC(O)C(CO)O1 (stereo not drawn)  > 100 µM (inactive)
 8  COC(=O)c1cc(-c2cccn2C)c2c(c1C(=O)OC)c1ccccc1n2C   71.1 µM (inactive)
 9     O=c1[nH]c2cc3cccnc3c(Cl)c2nc1C(F)(F)F   62.8 µM (inactive)
10  CC[C@@H]1OC2(C)CC(S(=O)(=O)c3ccccc3O)CC1O2 (stereo partly drawn)  > 100 µM (inactive)

Here "Nc1cc(-c2ccc(Cl)cc2)nn1-c1nc2ccccc2nc1-c1ccccc1" was tested on SK-MEL-28, and its GI50 came to 79.4 µM (inactive)

Query CCCCCCCC/C=C(\Br)C(O)C(Br)Br (stereo not drawn) on SK-MEL-28; GI50 returned: 29.2 µM (inactive)

Value sought: GI50, system SK-MEL-28, item CCN1CCC(O)(C(C(=O)O)c2ccccc2)CC1 (stereo not drawn) . Result: > 100 µM (inactive)

* * *

A collection of compounds and their measured GI50
tested on: SF-539; test: NCI tumour cell line growth inhibition, 48 h
Active and inactive are the calls of the source. Rule as the data show it: active = GI50 up to about 1.1 µM and inactive = higher.

# annotated cases, reported GI50 shown
> print(dat)
                                   compound  target.system             reported
1  N#C/C(=C1\N=NC(N)=C(c2ccc(Cl)cc2)C1=O)c1ccc(Cl)cc1         SF-539  > 100 µM (inactive)
2  CC(=O)Nc1sc([N+](=O)[O-])cc1S(=O)(=O)c1ccc(Cl)cc1         SF-539   3.18 µM (inactive)

Consider "CNC1=C/C(=N/C2=CC(=N/C(=C\C#N)C(C)(C)O)/OC2(C)C)OC1(C)C" . Its measured GI50 is 33.1 µM (inactive)

Record COC(=O)C1Cc2c([nH]c3ccccc23)C(C2CCCCC2)N1 (stereo not given) . Reported GI50: > 100 µM (inactive)

Memo: "COc1cc(COC(=O)N(C)[C@@H](Cc2ccccc2)C(=O)O)c([N+](=O)[O-])cc1OC" , reported GI50: > 100 µM (inactive)

* * *

test system: MCF7; test: NCI tumour cell line growth inhibition, 48 h
Activity calls are given as the source filed them. No stated cut-off is given here; in the data, active = GI50 up to about 1.1 µM and inactive = higher.
readout-kind: GI50

Study these solved cases before continuing.
compound	target-system	GI50
O=C(/C=C/c1cccs1)c1ccsc1	MCF7	10.4 µM (inactive)
O=C(/C=C/c1ccc(OCc2ccccc2)cc1)NCc1ccc(C(=O)NCCc2c[nH]c3ccccc23)cc1	MCF7	17.1 µM (inactive)
CN1C(=O)[C@@H]2N(CSC2(C)C)C1=S	MCF7	> 100 µM (inactive)

For this compound ( "CC1(C)N=C(N)N=C(N)N1c1cccc(OCCOc2ccc([N+](=O)[O-])cc2)c1" ), measured GI50 is 16 µM (inactive)

The recorded GI50 for entry CCN(CC)CC1CCCCN1CC(=O)N1c2ccccc2NC(=O)CC1C (centres undefined) equals > 100 µM (inactive)

Item: "O=[N+]([O-])c1ccc2c(c1)Cc1cc(/N=C/c3ccc4c(c3)OCO4)ccc1-2" | GI50: > 100 µM (inactive)

Summary for this compound, "COCCCNc1nc(N)c(C#N)c(C#N)c1C#N" : GI50 is > 10 µM (inactive)

Briefly, GI50 measured for "O=C(O)c1cccc(/C=C/c2ccccc2)c1" : > 100 µM (inactive)

Sure, the documented GI50 for CCOC(=O)C(NC(=O)c1ccccc1)(c1ccc(S(=O)(=O)Nc2onc(C)c2C)cc1)C(F)(F)F (centres undefined) is > 100 µM (inactive)

Query "Cc1ccc(S(=O)(=O)NC(=O)NCCc2ccc(O)c(O)c2)cc1" yields GI50 of 61.8 µM (inactive)

Value of GI50 reported for the compound CCOC(=O)Nc1ccc2c(c1)N(C(=O)CCN(CC)CC)c1ccccc1S2 [ETHACIZINE] is 25.3 µM (inactive)

The compound listed as C[C@@H]1OCC(O)C([C@H]2OC(c3ccccc3)=N[C@H]2CO)O1 (some centres undefined) has a reported GI50 of > 100 µM (inactive)

For record COc1ccc(/C=C2\CCC(Cc3ccccc3)(CN(C)C)C2=O)cc1 (centres undefined) the listed GI50 is 41.8 µM (inactive)
